# Test system: U251 CNS
# Test summary: NCI-60 one-dose screen, 48 h (100 = growth as untreated, 0 = no growth, -100 = all killed)
# Condition notes: 10 µM unless noted
# Procedure: Growth inhibition of the U251 human tumor cell line is measured as a screen for anti-cancer activity. Cells are grown in 96 well plates and exposed to the test compound for 48 hours. Compounds are tested at a single concentration, which is 10^-5 M for most compounds. The reported endpoint is percent growth (GI% or GIPRCNT), where numbers from 0 - 100% represent growth inhibition, and numbers from -100% - 0 represent cell death. For example, a value of 40 represents 60% growth inhibition. […]
The panel holds about 83,000 compounds, 20% with a hit somewhere; the sample as a whole holds those more often.
# growth per record follows
The reply should be a number in %, with the unit left off.

Sample answers from the record:
CCn1cc(CNc2ccc(C(=O)Nc3cc4cc(OC)c(OC)cc4c(C)n3)cc2)c(C)n1
71
O=C(O)c1cn(C2CC2)c2cc(N3CCN(C(=O)N/N=C/c4ccccc4)CC3)c(F)cc2c1=O
101
Nc1n[nH]c2ccc([C@@H]3Nc4cc5[nH]ncc5cc4[C@H]4C5CCC(C5)[C@@H]34)cc12 (stereo not given in full)
19
C=CC(=O)N1CCN(c2ccc3cccc(NC(=O)c4cnc(C)cn4)c3n2)CC1
32.1

Continue with the compound presented below.
Any idea what growth was measured for "CCCCCCCCn1ccc2cc(NC(=O)Cn3cc(CN4CCCCCC4)nn3)ccc21" ?
-43.6

====

# Tested on: NCI/ADR-RES ovarian
# Test summary: NCI-60 one-dose screen, 48 h (100 = growth as untreated, 0 = no growth, -100 = all killed)
# Condition notes: 10 µM unless noted
Compounds without any hit were thinned out: in the full panel of roughly 83,000, 20% have a hit.
Result type: growth (%)
Only the number, expressed in %, is required.

See these solved cases before continuing.
O=C(N/N=C/c1ccc(O)cc1O)c1ccc(Nc2ccnc(C(F)(F)F)c2)cc1
64.2
COC(=O)C1=C(C)NC(C)=C(C(=O)OCC(C)C)C1c1ccccc1[N+](=O)[O-] (centres undefined)
48.8
CC1(C)OC(=O)C(=Cc2cccc(Br)c2)C(=O)O1
107
COc1cccc(NC(=O)c2cccc(C3CCc4c(cc(OC)c(OC)c4OC)O3)c2)c1 (centres undefined)
55.9
COc1cc2cc(NCc3ccc(OC(F)F)cc3)nc(C)c2cc1OC
56.3
COCC[C@H]1CCC/C=C/[C@@H]2C[C@H](O)C[C@H]2[C@H](O)/C=C/C(=O)O1
3

Given the entry "FC(F)(F)c1[nH]ncc1-c1nc2c(N3CCCCC3)cc3[nH]ncc3c2c2c1CCCC2" , what growth was observed with NCI/ADR-RES ovarian?
44.8

Next up: "CCOC(=O)c1c(C)nc2ccccc2c1/C=C/c1ccc(OC)cc1"
31.2

====

# Test system: NCI-H23 lung
# Test summary: NCI-60 one-dose screen, 48 h
# Condition notes: 10 µM unless noted
# Protocol: Growth inhibition of the NCI-H23 human Non-Small Cell Lung tumor cell line is measured as a screen for anti-cancer activity. Cells are grown in 96 well plates and exposed to the test compound for 48 hours. Compounds are tested at a single concentration, which is 10^-5 M for most compounds. The reported endpoint is percent growth (GI% or GIPRCNT), where numbers from 0 - 100% represent growth inhibition, and numbers from -100% - 0 represent cell death. […]
About 83,000 compounds went through this panel and 20% of them were active in at least one assay; those are over-represented in the sample as a whole. Active and inactive are the calls of the source. The calls were made as follows: active = growth percent below 10; inactive = the rest.
Respond only with the outcome that fits, drawn from TRUE = active, FALSE = inactive

CCOC(=O)c1c(C)nn(CC(O)c2ccccc2)c1NC(=O)Nc1cccc(F)c1 (stereo not drawn)
FALSE
O=C1C(Cl)=C(NCCN2CCOCC2)C(=O)c2ncccc21
TRUE
CN(C)c1ccc(/C=C/C(=O)c2ccccc2)cc1
FALSE
COc1cc(C(=O)/C=C/c2c(-c3cccs3)nc3ccccn23)cc(OC)c1OC
FALSE

Attention now shifts to the item below.
Can you look up the reported call for CC(C)=CC(=O)N[C@@H]1CC2CCC3C(CC[C@@]4(C)C3CC[C@@H]4C(C)N(C)C)[C@@]2(C)C[C@@H]1O (stereo partly drawn) for me?
FALSE

====

# Test system: SNB-75 CNS
# Test summary: NCI-60 one-dose screen, 48 h (100 = growth as untreated, 0 = no growth, -100 = all killed)
# Condition notes: 10 µM unless noted
This is part of a sample that, as a whole, favours compounds with a hit. Of some 83,000 tested, about 20% had one in any assay.
Result type: growth (%)
Give just the number in %; leave the unit off.

CCN(CC)CCNC(=O)c1ccc(-c2nc3ccc4[nH]ncc4c3c3c2CCCC3)cc1
54.2
CCCCCCCCn1ccc2cc(NC(=O)Cn3cc(CN4CCC(C)CC4)nn3)ccc21
79.1
O=C(Nc1ccccc1O)c1ccccc1Nc1ccnc(C(F)(F)F)c1
90.7
CCOC(=O)c1c2c(n3c1NCC3)-c1ccccc1C2=O
83.5
O=C1/C(=C/c2ccccc2[N+](=O)[O-])COc2ccc(O)cc21
43.2
COc1ccc2c(c1)c(-c1nc(-c3cn(C)c4ncccc34)cs1)cn2CCO
91.3
Cc1cc(F)ccc1S(=O)(=O)Nc1cc(-c2c(O)ccc3ccccc23)c(O)c2ccccc12
46.2
CN1CCN(Cc2ccc(NC(=O)c3cncc(C#Cc4cnn5ccccc45)c3)cc2C(F)(F)F)CC1
13.6
Cc1[nH]c(C(=O)Nc2cccc(OC3CCNCC3)c2)c(Cl)c1Cl
82.3

Find growth (SNB-75 CNS) for the entry CC1(C)O[C@H]2OC3CCC(=O)CC3(O)[C@H]2O1 (stereo not given in full)
95.1

====

# Test system: SN12C renal
# Test summary: NCI-60 one-dose screen, 48 h
# Condition notes: 10 µM unless noted
This is part of a sample that, as a whole, favours compounds with a hit. Of some 83,000 tested, about 20% had one in any assay. Calls of active or inactive are those of the source. The calls were made as follows: active = growth percent below 10; inactive = the rest.
Choose one outcome from this list and give only that: active, inactive

How was CC1=NN(c2ccc(Cl)cc2)CC1(C)N=O (stereo not drawn) classified in this test?
inactive

Cool, now "COP(=O)(OC)c1nnn(-c2cccc([N+](=O)[O-])c2)c1C"
inactive

And the next one, "Cc1cccc(-n2c(C)nc3ccc(N4CCCNC4=O)cc3c2=O)c1" ?
inactive

====

# System: U251 CNS
# Test summary: NCI-60 one-dose screen, 48 h (100 = growth as untreated, 0 = no growth, -100 = all killed)
# Condition notes: 10 µM unless noted
The panel holds about 83,000 compounds, 20% with a hit somewhere; the sample as a whole holds those more often.
Response field label takes class 1 when growth is strictly below 80% and class 0 in all other cases.

Example entries and their recorded answers appear below.
C#CC#CC#CC#CC#CC#CC#CC#CC[C@H]1OC[C@@H](COC(=O)O[C@@H](C(=O)O[C@H]2C[C@@]3(O)[C@@H](OC(=O)c4ccccc4)[C@@H]4[C@]5(OC(C)=O)CO[C@@H]5C[C@H](O)[C@@]4(C)C(=O)[C@H](OC(C)=O)C(=C2C)C3(C)C)[C@@H](NC(=O)c2ccccc2)c2ccccc2)O1
class 1
COc1cc2c(cc1O)[C@@]1(C)[C@H](c3ccccc3Br)OC(=O)N1CC2
class 0
C=C1C(=O)O[C@H]2[C@H]1CC/C(COC(=O)NCCCCCCCCNC(=O)OC/C1=C/CC[C@@]3(C)O[C@H]3[C@H]3OC(=O)C(=C)[C@@H]3CC1)=C\CC[C@@]1(C)O[C@@H]21
class 1
CCOC(=O)c1c(-c2ccccc2)n2c(=O)cc(C)c3c(O)c(O)cc1c32
class 1

API: query returns whether the compound falls strictly under 80% in growth. Query: "O=C(CN1CCN(c2cc3c(cc2F)c(=O)c(C(=O)O)cn3C2CC2)CC1)N/N=C/c1ccncc1"
class 0

====

# System: TK-10 renal
# Test summary: NCI-60 one-dose screen, 48 h (100 = growth as untreated, 0 = no growth, -100 = all killed)
# Condition notes: 10 µM unless noted
About 83,000 compounds went through this panel and 20% of them were active in at least one assay; those are over-represented in the sample as a whole.
Please use the following growth ranges when assigning a class: class 1 (below 40%), class 2 (40% to below 60%), class 3 (60% or more)

Study these solved cases before continuing.
O=C1NC(=O)c2c1c1c3ccccc3[nH]c1c1oc3ccc(F)cc3c21
class 3
COc1cc(/C=C\c2cc(/C=C\c3ccc(O)c(OC)c3)n(C(=O)CNc3ccc(Cl)cc3)n2)ccc1O
class 2
COc1ccc(NC(=O)c2cccc(C3CCc4c(cc(OC)c(OC)c4OC)O3)c2)cc1 (centres undefined)
class 2
NNC(=S)N/N=C/c1ccccn1
class 2
N#Cc1nc(-c2ccc(F)cc2)oc1S(=O)(=O)N1CCN(c2ccc(F)cc2)CC1
class 3
N=c1c2c(=N)n3c(nc2nc2n1-c1ccccc1Sc1ccccc1-2)sc1cc(Cl)ccc13
class 1

State the class of the compound shown: "C=C1C(=O)O[C@H]2[C@H]1CC/C(COC(=O)/C=C\C(=O)NCc1ccc(Cn3c(=O)sn(-c4ccccc4)c3=O)cc1)=C\CC[C@@]1(C)O[C@@H]21"
class 3

Also check "O=C(CSc1nnc2sc(Nc3cccc(Cl)c3)nn12)c1ccc(F)cc1"
class 3

Do the same for "CCN(CC)CCCNCc1cc(-c2ccccc2)nc2cc(Cl)ccc12" please
class 2

Record: "O=C1/C(=C/c2ccc(C(F)(F)F)cc2)COc2ccc(O)c(O)c21"
class 1

Cool, now "CN1CCN(C(=O)c2cc(-c3ccc4ncnc(N5CCc6cc(F)c(Cl)cc65)c4c3)cnc2N)CC1"
class 1

Numbers sourced from PubChem BioAssay (NCI).
